Data provenance: patent US9890175B2

experimental details: Caco-2 cell monolayer membrane transport assay (Papp and recovery)
Type: in vitro ADME
details: human, Caco-2, Caco-2, A-B, Mean; read-out: Recovery rate in mass, Mean
Collected recovery values appear next to each entry.
Reply with just the number (in %).

>>> endpoint_result("CO[C@H]1C(=O)[C@]2(C)[C@@H](OC)C[C@H]3OC[C@@]3(OC(C)=O)[C@H]2[C@H](OC(=O)c2ccccc2)[C@]23OC(=O)O[C@H]2[C@H](OC(=O)[C@H](O)[C@@H](NC(=O)N(C)C)c2ccccc2)C(C)=C1C3(C)C [PCMI-03]")
61.7

Could you now look at the following compound, please?
Provide recovery value for the following compound: COC(=O)O[C@H]1C[C@H]2OC[C@@]2(OC(C)=O)[C@H]2[C@H](OC(=O)c3ccccc3)[C@]34OC(=O)O[C@H]3[C@H](OC(=O)[C@H](O)[C@H](CC(C)C)NC(=O)OC(C)(C)C)C(C)=C([C@@H](OC)C(=O)[C@]12C)C4(C)C [PCMI-20]
86.5

* * *

Test system: HT-29 colon cancer
experimental details: MTT proliferation inhibition, HT-29
Assay type: cell-based
details: Homo sapiens, HT-29, read-out: Proliferation inhibition rate, HT29 Colon cancer
Quick reference for inhibition at 1 µM among some molecules
Your answer should be a plain number; it is taken to be in %.

Worked examples follow.
>>> endpoint_result("CO[C@H]1C[C@H]2OC[C@@]2(OC(C)=O)[C@H]2[C@H](OC(=O)c3ccccc3)[C@]34OC(=O)O[C@H]3[C@H](OC(=O)[C@H](O)[C@H](CC(C)C)NC(=O)OC(C)(C)C)C(C)=C([C@@H](OC(=O)N(C)C)C(=O)[C@]12C)C4(C)C")
86.2
>>> endpoint_result("CO[C@H]1C(=O)[C@]2(C)[C@@H](OC(=O)N(C)C)C[C@H]3OC[C@@]3(OC(C)=O)[C@H]2[C@H](OC(=O)c2ccccc2)[C@]23OC(=O)O[C@H]2[C@H](OC(=O)[C@H](O)[C@@H](NC(=O)OC(C)(C)C)c2ccccn2)C(C)=C1C3(C)C")
88.7
>>> endpoint_result("CO[C@H]1C(=O)[C@]2(C)[C@@H](OC)C[C@H]3OC[C@@]3(OC(C)=O)[C@H]2[C@H](OC(=O)c2ccccc2)[C@]23OC(=O)O[C@H]2[C@H](OC(=O)[C@H](O)[C@@H](NC(=O)c2ccccc2)c2ccccc2)C(C)=C1C3(C)C")
89

Okay, next one:
Specify reported inhibition at 1 µM for the molecule shown: CO[C@H]1C[C@H]2OC[C@@]2(OC(C)=O)[C@H]2[C@H](OC(=O)c3ccccc3)[C@]34OC(=O)O[C@H]3[C@H](OC(=O)[C@H](O)[C@@H](NC(=O)N(C)C)c3ccccc3)C(C)=C([C@@H](OC(=O)N(C)C)C(=O)[C@]12C)C4(C)C
85.9

* * *

experimental details: Caco-2 cell monolayer membrane transport assay (Papp and recovery)
Format: in vitro ADME
details: human, Caco-2, Caco-2, A-B, Sample-01; read-out: Recovery rate in mass, Sample-01
# cutoff 70% applies to recovery; >= gives Yes, < gives No

Before answering, review these 8 worked examples.
>>> group_label("CO[C@H]1C(=O)[C@]2(C)[C@@H](OC)C[C@H]3OC[C@@]3(OC(C)=O)[C@H]2[C@H](OC(=O)c2ccccc2)[C@]23OC(=O)O[C@H]2[C@H](OC(=O)[C@H](O)[C@@H](NC(=O)N(C)C)c2ccccc2)C(C)=C1C3(C)C")
"No"
>>> group_label("COC(=O)O[C@H]1C[C@H]2OC[C@@]2(OC(C)=O)[C@H]2[C@H](OC(=O)c3ccccc3)[C@]34OC(=O)O[C@H]3[C@H](OC(=O)[C@H](O)[C@H](CC(C)C)NC(=O)OC(C)(C)C)C(C)=C([C@@H](OC)C(=O)[C@]12C)C4(C)C")
"Yes"
>>> group_label("CO[C@H]1C(=O)[C@]2(C)[C@@H](OC)C[C@H]3OC[C@@]3(OC(C)=O)[C@H]2[C@H](OC(=O)c2ccccc2)[C@]23OC(=O)O[C@H]2[C@H](OC(=O)[C@H](O)[C@@H](NC(=O)c2ccccc2)c2ccccc2)C(C)=C1C3(C)C")
"No"
>>> group_label("CCSC(=O)O[C@H]1C[C@H]2OC[C@@]2(OC(C)=O)[C@H]2[C@H](OC(=O)c3ccccc3)[C@]34OC(=O)O[C@H]3[C@H](OC(=O)[C@H](O)[C@@H](NC(=O)OC(C)(C)C)c3ccccc3)C(C)=C([C@@H](OC)C(=O)[C@]12C)C4(C)C")
"Yes"
>>> group_label("CO[C@H]1C(=O)[C@]2(C)[C@@H](OC)C[C@H]3OC[C@@]3(OC(C)=O)[C@H]2[C@H](OC(=O)c2ccccc2)[C@]23OC(=O)O[C@H]2[C@H](OC(=O)[C@H](O)[C@H](CC(C)C)NC(=O)OC(C)(C)C)C(C)=C1C3(C)C")
"No"
>>> group_label("CO[C@H]1C(=O)[C@]2(C)[C@@H](OC(=O)N(C)C)C[C@H]3OC[C@@]3(OC(C)=O)[C@H]2[C@H](OC(=O)c2ccccc2)[C@]23OC(=O)O[C@H]2[C@H](OC(=O)[C@H](O)[C@@H](NC(=O)OC(C)(C)C)c2ccccc2)C(C)=C1C3(C)C")
"Yes"
>>> group_label("CO[C@H]1C[C@H]2OC[C@@]2(OC(C)=O)[C@H]2[C@H](OC(=O)c3ccccc3)[C@]34OC(=O)O[C@H]3[C@H](OC(=O)[C@H](O)[C@@H](NC(=O)OC(C)(C)C)c3ccccc3)C(C)=C([C@@H](OC(=O)N(C)C)C(=O)[C@]12C)C4(C)C")
"Yes"
>>> group_label("CO[C@H]1C[C@H]2OC[C@@]2(OC(C)=O)[C@H]2[C@H](OC(=O)c3ccccc3)[C@]34OC(=O)O[C@H]3[C@H](OC(=O)[C@H](O)[C@H](CC(C)C)NC(=O)OC(C)(C)C)C(C)=C([C@@H](OC(=O)N(C)C)C(=O)[C@]12C)C4(C)C")
"No"

Tell me whether recovery is at least 70% here: COC(=O)O[C@H]1C[C@H]2OC[C@@]2(OC(C)=O)[C@H]2[C@H](OC(=O)c3ccccc3)[C@]34OC(=O)O[C@H]3[C@H](OC(=O)[C@H](O)[C@@H](NC(=O)N(C)C)c3ccccc3)C(C)=C([C@@H](OC)C(=O)[C@]12C)C4(C)C
Yes

* * *

Attribute: inhibition at 1 µM
Tested on: NCI-H460 non-small cell lung cancer
experimental details: MTT proliferation inhibition, NCI-H460
Format: cell-based
details: Homo sapiens, NCI-H460, read-out: Proliferation inhibition rate, NCI-H460 Non-small cell lung cancer
Give just the numeric value; % need not be written.

Solved entries:
>>> endpoint_result("COC(=O)O[C@H]1C[C@H]2OC[C@@]2(OC(C)=O)[C@H]2[C@H](OC(=O)c3ccccc3)[C@]34OC(=O)O[C@H]3[C@H](OC(=O)[C@H](O)[C@H](CC(C)C)NC(=O)OC(C)(C)C)C(C)=C([C@@H](OC)C(=O)[C@]12C)C4(C)C [PCMI-20]")
86.8
>>> endpoint_result("CO[C@H]1C[C@H]2OC[C@@]2(OC(C)=O)[C@H]2[C@H](OC(=O)c3ccccc3)[C@]34OC(=O)O[C@H]3[C@H](OC(=O)[C@H](O)[C@H](CC(C)C)NC(=O)OC(C)(C)C)C(C)=C([C@@H](OC(=O)N(C)C)C(=O)[C@]12C)C4(C)C [PCMI-10]")
81
>>> endpoint_result("CO[C@H]1C[C@H]2OC[C@@]2(OC(C)=O)[C@H]2[C@H](OC(=O)c3ccccc3)[C@]34OC(=O)O[C@H]3[C@H](OC(=O)[C@H](O)[C@@H](NC(=O)OC(C)(C)C)c3ccccc3)C(C)=C([C@@H](OC(=O)N(C)C)C(=O)[C@]12C)C4(C)C [PCMI-08]")
85.2
>>> endpoint_result("COC(=O)O[C@H]1C[C@H]2OC[C@@]2(OC(C)=O)[C@H]2[C@H](OC(=O)c3ccccc3)[C@]34OC(=O)O[C@H]3[C@H](OC(=O)[C@H](O)[C@@H](NC(=O)OC(C)(C)C)c3ccccc3)C(C)=C([C@@H](OC)C(=O)[C@]12C)C4(C)C [PCMI-17]")
89.2
>>> endpoint_result("CO[C@H]1C(=O)[C@]2(C)[C@@H](OC)C[C@H]3OC[C@@]3(OC(C)=O)[C@H]2[C@H](OC(=O)c2ccccc2)[C@]23OC(=O)O[C@H]2[C@H](OC(=O)[C@H](O)[C@@H](NC(=O)N(C)C)c2ccccc2)C(C)=C1C3(C)C [PCMI-03]")
85.3
>>> endpoint_result("CCSC(=O)O[C@H]1C[C@H]2OC[C@@]2(OC(C)=O)[C@H]2[C@H](OC(=O)c3ccccc3)[C@]34OC(=O)O[C@H]3[C@H](OC(=O)[C@H](O)[C@@H](NC(=O)OC(C)(C)C)c3ccccc3)C(C)=C([C@@H](OC)C(=O)[C@]12C)C4(C)C [PCMI-21]")
85.5

Output reported inhibition at 1 µM of the molecule COC(=O)O[C@H]1C[C@H]2OC[C@@]2(OC(C)=O)[C@H]2[C@H](OC(=O)c3ccccc3)[C@]34OC(=O)O[C@H]3[C@H](OC(=O)[C@H](O)[C@@H](NC(=O)N(C)C)c3ccccc3)C(C)=C([C@@H](OC)C(=O)[C@]12C)C4(C)C [PCMI-19] on NCI-H460 non-small cell lung cancer.
87.3

# return inhibition at 1 µM of CO[C@H]1C(=O)[C@]2(C)[C@@H](OC(=O)N(C)C)C[C@H]3OC[C@@]3(OC(C)=O)[C@H]2[C@H](OC(=O)c2ccccc2)[C@]23OC(=O)O[C@H]2[C@H](OC(=O)[C@H](O)[C@@H](NC(=O)OC(C)(C)C)c2ccccn2)C(C)=C1C3(C)C [PCMI-15] (system: NCI-H460 non-small cell lung cancer)
86
